System: IGROV1 ovarian
Assay: NCI-60 one-dose screen, 48 h (100 = growth as untreated, 0 = no growth, -100 = all killed)
Details: 10 µM unless noted
This is part of a sample that, as a whole, favours compounds with a hit. Of some 83,000 tested, about 20% had one in any assay.
Listed here: items and their measured growth.
Attribute Measured: growth (%)

- Compound: "CC(=O)Nc1ccc(O)c(C)c1"
  Test Target: "IGROV1 ovarian"
  Recorded Measurement: 110
- Compound: "COc1ccc(/C=C\\C(=O)/C=C/c2ccc(OC)cc2)cc1"
  Test Target: "IGROV1 ovarian"
  Recorded Measurement: 92.3
- Compound: "CCOC(=O)C(C#N)=C1CCN(C)CC1"
  Test Target: "IGROV1 ovarian"
  Recorded Measurement: 96.9
- Compound: "Cc1[nH]c(=S)[nH]c(=O)c1C"
  Test Target: "IGROV1 ovarian"
  Recorded Measurement: 104
- Compound: "O=C(O)Cc1ccc(Cl)cc1"
  Test Target: "IGROV1 ovarian"
  Recorded Measurement: 109
- Compound: "Oc1ccc(CCC2CCNc3ccccc32)cc1 (stereo not drawn)"
  Test Target: "IGROV1 ovarian"
  Recorded Measurement: 91.1
- Compound: "COc1c(CNC(=O)CCl)cc2[nH]c(C)cc2c1CNC(=O)CCl"
  Test Target: "IGROV1 ovarian"
  Recorded Measurement: 33.8
- Compound: "CCCNS(=O)(=O)c1ccc(Cl)cc1"
  Test Target: "IGROV1 ovarian"
  Recorded Measurement: 105
- Compound: "C#CCSc1nnnn1-c1ccccc1"
  Test Target: "IGROV1 ovarian"
  Recorded Measurement: 92.8
- Compound: "CCOC(=O)/C(O)=C(\\C=N\\C(=S)Nc1ccc(Cl)c(Cl)c1)C(=O)OCC"
  Test Target: "IGROV1 ovarian"
  Recorded Measurement: 101
- Compound: "CCOC(=O)c1ccc(Nc2sc(C(=O)c3ccc(Br)cc3)c(N)c2C#N)cc1"
  Test Target: "IGROV1 ovarian"
  Recorded Measurement: 31.3
- Compound: "O=C(N/N=C\\c1ccc(Cl)cc1Cl)c1ccncc1"
  Test Target: "IGROV1 ovarian"
  Recorded Measurement: 96.3
- Compound: "O=S(Cc1ccccc1)/C(=C/NC(=S)Nc1cc(Cl)ccc1Cl)c1ccccc1 (stereo not drawn)"
  Test Target: "IGROV1 ovarian"
  Recorded Measurement: 95.8
- Compound: "CCOC(=O)C(COS(C)(=O)=O)(COS(C)(=O)=O)C(=O)OCC"
  Test Target: "IGROV1 ovarian"
  Recorded Measurement: 104
- Compound: "CCOC(=O)Nc1nccs1"
  Test Target: "IGROV1 ovarian"
  Recorded Measurement: 97.2
- Compound: "O=C(O)c1ccc([N+](=O)[O-])cc1S(=O)(=O)O"
  Test Target: "IGROV1 ovarian"
  Recorded Measurement: 108
- Compound: "N#CCCN1C(=O)CCC1C(=O)O (stereo not drawn)"
  Test Target: "IGROV1 ovarian"
  Recorded Measurement: 107
- Compound: "CCCCc1ccc2nc(NC(=O)OC)[nH]c2c1"
  Test Target: "IGROV1 ovarian"
  Recorded Measurement: 15.8

---

# growth values compiled below
System: BT-549 breast
Test: NCI-60 one-dose screen, 48 h (100 = growth as untreated, 0 = no growth, -100 = all killed)
Settings: 10 µM unless noted
This is part of a sample that, as a whole, favours compounds with a hit. Of some 83,000 tested, about 20% had one in any assay.

- Compound: "Cc1ccc(C)c(CCO)c1"
  Test Target: "BT-549 breast"
  Unit Of Measurement: "%"
  growth: 94.3
- Compound: "O=c1nc(Nc2cccc(Cl)c2)oc2cc(Cl)oc(=O)c12"
  Test Target: "BT-549 breast"
  Unit Of Measurement: "%"
  growth: 91.2
- Compound: "O=C(O)c1c[nH]c2ccccc2c1=O"
  Test Target: "BT-549 breast"
  Unit Of Measurement: "%"
  growth: 101
- Compound: "Cn1/c(=N\\N=C\\c2ccccc2OCCO)sc2ccccc21"
  Test Target: "BT-549 breast"
  Unit Of Measurement: "%"
  growth: 102
- Compound: "Nc1ccn(C2CC(N)C(CO)O2)c(=O)n1 (stereo unspecified)"
  Test Target: "BT-549 breast"
  Unit Of Measurement: "%"
  growth: 71.8
- Compound: "COC1CC(OC(=O)c2ccc([N+](=O)[O-])cc2)C(COC(=O)c2ccc([N+](=O)[O-])cc2)O1 (stereo unspecified)"
  Test Target: "BT-549 breast"
  Unit Of Measurement: "%"
  growth: 116

---

# reported growth; entries follow
Tested on: LOX IMVI melanoma
Test: NCI-60 one-dose screen, 48 h (100 = growth as untreated, 0 = no growth, -100 = all killed)
Details: 10 µM
Compounds without any hit were thinned out: in the full panel of roughly 83,000, 20% have a hit.
Attribute Measured: growth (%)

- Compound: "Cc1ccc([N+](=O)[O-])c(C)n1"
  Unit Of Measurement: "%"
  Recorded Measurement: 103
- Compound: "CC(C)NC(=O)OCc1c(COC(=O)NC(C)C)c(-c2ccc(Cl)cc2)n2c1CCC2"
  Unit Of Measurement: "%"
  Recorded Measurement: 30.5
- Compound: "CC(=O)OCC1CCC(COC(C)=O)CC1 (stereo unspecified)"
  Unit Of Measurement: "%"
  Recorded Measurement: 94
- Compound: "O=C(O)c1c[nH]c2ccccc2c1=O"
  Unit Of Measurement: "%"
  Recorded Measurement: 97.2
- Compound: "N#C/C(=C\\c1ccc2c(c1)OCO2)c1ccccc1"
  Unit Of Measurement: "%"
  Recorded Measurement: 78.3
- Compound: "CN1CCCN(C(c2ccccc2)c2ccc(Cl)cc2)CC1 (stereo unspecified)"
  Unit Of Measurement: "%"
  Recorded Measurement: 89.4
- Compound: "Cc1cc(CO)c(O)c(CO)c1"
  Unit Of Measurement: "%"
  Recorded Measurement: 90.7
- Compound: "Cc1c(Cl)cccc1N=C=S"
  Unit Of Measurement: "%"
  Recorded Measurement: 103
- Compound: "CC(=O)O[C@H]1CC[C@]2(C)C3=C(C(=O)C[C@H]2C1(C)C)[C@]1(C)CC[C@H]([C@H](C)CCC(=O)O)[C@@]1(C)CC3=O"
  Unit Of Measurement: "%"
  Recorded Measurement: 98.1
- Compound: "CCCC(=O)CC(=O)c1ccccc1"
  Unit Of Measurement: "%"
  Recorded Measurement: 97.5
- Compound: "CNc1ccccc1C(=O)N/N=C/C=C/c1ccccc1"
  Unit Of Measurement: "%"
  Recorded Measurement: 14.7
- Compound: "CCNc1ncnc2[nH]ncc12"
  Unit Of Measurement: "%"
  Recorded Measurement: 98
- Compound: "COCC(N)=O"
  Unit Of Measurement: "%"
  Recorded Measurement: 99.7
- Compound: "O=C(O)c1cc(I)ccc1O"
  Unit Of Measurement: "%"
  Recorded Measurement: 92
- Compound: "CC1(C)OC2C(CO)OC(n3ccc(=O)[nH]c3=O)C2O1 (stereo unspecified)"
  Unit Of Measurement: "%"
  Recorded Measurement: 101
- Compound: "CC(C)C(=O)OCCOc1ccc(C(C)(C)C)cc1"
  Unit Of Measurement: "%"
  Recorded Measurement: 95.8

---

System: ACHN renal
Experiment: NCI-60 one-dose screen, 48 h
Details: 10 µM unless noted
About 83,000 compounds went through this panel and 20% of them were active in at least one assay; those are over-represented in the sample as a whole. Active and inactive are the calls of the source. The calls were made as follows: active = growth percent below 10; inactive = the rest.
Possible outcomes: active, inactive

- Compound: "O=C(c1cccc(C(=O)c2ccc3c4c(cccc24)C(=O)N(c2ccccc2)C3=O)c1)c1ccc2c3c(cccc13)C(=O)N(c1ccccc1)C2=O"
  Test Target: "ACHN renal"
  Classification: "inactive"
- Compound: "Cc1ccc(S(=O)(=O)NC(=O)NCCSSCCNC(=O)NS(=O)(=O)c2ccc(C)cc2)cc1"
  Test Target: "ACHN renal"
  Classification: "inactive"
- Compound: "CCOc1ccc(NC(=S)N2CCC(CCCC3CCN(C(=S)Nc4ccc(OCC)cc4)CC3)CC2)cc1"
  Test Target: "ACHN renal"
  Classification: "inactive"
- Compound: "O=c1cc(Cl)nc2ccccn12"
  Test Target: "ACHN renal"
  Classification: "inactive"
- Compound: "Cc1cc2c(C(C)C)c(O)c(O)c(C=Nc3ccccc3[N+](=O)[O-])c2c(O)c1-c1c(C)cc2c(C(C)C)c(O)c(O)c(C=Nc3ccccc3[N+](=O)[O-])c2c1O"
  Test Target: "ACHN renal"
  Classification: "inactive"
- Compound: "CC(C)(N)CO[C@H]1C[C@H]2CC[C@@]1(C)C2(C)C"
  Test Target: "ACHN renal"
  Classification: "inactive"
- Compound: "CCNc1ncnc2[nH]ncc12"
  Test Target: "ACHN renal"
  Classification: "inactive"
- Compound: "CCOC(=O)N[C@H]1CCc2cc(OC)c(OC)c(OC)c2-c2ccc(SC)c(=O)cc21"
  Test Target: "ACHN renal"
  Classification: "inactive"
- Compound: "O=C(O)c1ccc([N+](=O)[O-])cc1S(=O)(=O)O"
  Test Target: "ACHN renal"
  Classification: "inactive"
- Compound: "CC(C)(CC(=O)O)CC(=O)O"
  Test Target: "ACHN renal"
  Classification: "inactive"
- Compound: "CC1(c2ccccc2)CO1 (stereo unspecified)"
  Test Target: "ACHN renal"
  Classification: "inactive"
- Compound: "O=C(O)C1CCCN1C(=O)OCc1ccccc1 (stereo unspecified)"
  Test Target: "ACHN renal"
  Classification: "inactive"
- Compound: "O=C(OC1CCCC1)c1ccccc1Cl"
  Test Target: "ACHN renal"
  Classification: "inactive"
- Compound: "CCC(/C=C\\C(C)=O)CC"
  Test Target: "ACHN renal"
  Classification: "inactive"
- Compound: "CCCCCC/C=C\\CCCCCCCCCc1cc(O)cc(OC)c1O"
  Test Target: "ACHN renal"
  Classification: "inactive"
- Compound: "CCCCCCCCNC(=O)C(C)C"
  Test Target: "ACHN renal"
  Classification: "inactive"
- Compound: "CCN(C(=O)Nc1ccccc1Cl)c1ccccc1"
  Test Target: "ACHN renal"
  Classification: "inactive"
- Compound: "O=C(c1ccc(Cl)cc1)N1CCCCC1"
  Test Target: "ACHN renal"
  Classification: "inactive"
- Compound: "C/C(=N\\O)c1ccccn1"
  Test Target: "ACHN renal"
  Classification: "inactive"
- Compound: "COc1cccc(C(=O)NNC(=O)c2cccc3ccccc23)c1"
  Test Target: "ACHN renal"
  Classification: "inactive"
- Compound: "C=CC(=O)OC1CCC(C(C)(C)CC)CC1 (stereo unspecified)"
  Test Target: "ACHN renal"
  Classification: "inactive"
- Compound: "CC(=O)Nc1ccc(/C=C2\\SC(=S)N(/C=C(\\C(C)=O)C(N)=O)C2=O)cc1"
  Test Target: "ACHN renal"
  Classification: "inactive"
- Compound: "COc1ccc(Br)c2c1C(=O)CC2"
  Test Target: "ACHN renal"
  Classification: "inactive"
- Compound: "Cc1cc(Cl)cc(Cc2cc(Cl)cc(C)c2O)c1O"
  Test Target: "ACHN renal"
  Classification: "active"
- Compound: "CC(O)C(F)(F)C(F)(F)C(F)(F)F (stereo unspecified)"
  Test Target: "ACHN renal"
  Classification: "inactive"
- Compound: "CNc1ccccc1C(N)=O"
  Test Target: "ACHN renal"
  Classification: "inactive"
- Compound: "CC(=O)/C(C)=N\\OC(=O)Nc1ccccc1"
  Test Target: "ACHN renal"
  Classification: "inactive"
- Compound: "COc1ccc(C2CC(c3ccccc3)=Nc3ccccc3S2)cc1 (stereo unspecified)"
  Test Target: "ACHN renal"
  Classification: "inactive"
- Compound: "CCC(C)C1CCC(O)CC1 (stereo unspecified)"
  Test Target: "ACHN renal"
  Classification: "inactive"
- Compound: "Nc1cc2ccccc2c(O)c1O"
  Test Target: "ACHN renal"
  Classification: "active"
- Compound: "CCCc1cccc(CCC)c1NC(=O)Nc1cc(Cl)cc(Cl)c1"
  Test Target: "ACHN renal"
  Classification: "inactive"
- Compound: "Cc1ccc(N2C(=O)c3cccc4c(N)c(S(=O)(=O)O)cc(c34)C2=O)cc1"
  Test Target: "ACHN renal"
  Classification: "inactive"
- Compound: "CCCCN(C=S)CCCC"
  Test Target: "ACHN renal"
  Classification: "inactive"
- Compound: "COc1ccc(/C=N/NC(=O)COCC(=O)N/N=C/c2ccc(OC)cc2)cc1"
  Test Target: "ACHN renal"
  Classification: "inactive"
- Compound: "Cn1c2ccccc2c2nnc(NCCCCO)nc21"
  Test Target: "ACHN renal"
  Classification: "inactive"
- Compound: "CCOC(=O)CNC(=O)Sc1ccc(C(C)(C)C)cc1"
  Test Target: "ACHN renal"
  Classification: "inactive"
- Compound: "C=C(C)COc1ccc(C(C)(C)C)cc1"
  Test Target: "ACHN renal"
  Classification: "inactive"
- Compound: "Nc1cccc2cccc(O)c12"
  Test Target: "ACHN renal"
  Classification: "inactive"
- Compound: "CCC(C)c1c(N)n(S(=O)(=O)c2ccc(C)cc2)oc1=O (stereo unspecified)"
  Test Target: "ACHN renal"
  Classification: "inactive"
- Compound: "Cn1c(=O)c2[nH]c(CC(=O)O)nc2n(C)c1=O"
  Test Target: "ACHN renal"
  Classification: "inactive"
- Compound: "Cc1cc(NC(=O)c2ccccc2)c(Cl)cc1N"
  Test Target: "ACHN renal"
  Classification: "inactive"
- Compound: "CCCCn1cnc2c(=O)[nH]cnc21"
  Test Target: "ACHN renal"
  Classification: "inactive"
- Compound: "O=S(Cc1ccccc1)/C(=C/NC(=S)Nc1cc(Cl)ccc1Cl)c1ccccc1 (stereo unspecified)"
  Test Target: "ACHN renal"
  Classification: "inactive"
- Compound: "CCOC(=O)C(C#N)=C1CCN(C)CC1"
  Test Target: "ACHN renal"
  Classification: "inactive"
- Compound: "CCNCC(C)(C)O"
  Test Target: "ACHN renal"
  Classification: "inactive"
- Compound: "C=CC(C)C(C)(C)O (stereo unspecified)"
  Test Target: "ACHN renal"
  Classification: "inactive"
